Molecular target: StHK3aSM (Solanum tuberosum, UniProt A0A2U9K793)
Sequence (A0A2U9K793 entry or part of it): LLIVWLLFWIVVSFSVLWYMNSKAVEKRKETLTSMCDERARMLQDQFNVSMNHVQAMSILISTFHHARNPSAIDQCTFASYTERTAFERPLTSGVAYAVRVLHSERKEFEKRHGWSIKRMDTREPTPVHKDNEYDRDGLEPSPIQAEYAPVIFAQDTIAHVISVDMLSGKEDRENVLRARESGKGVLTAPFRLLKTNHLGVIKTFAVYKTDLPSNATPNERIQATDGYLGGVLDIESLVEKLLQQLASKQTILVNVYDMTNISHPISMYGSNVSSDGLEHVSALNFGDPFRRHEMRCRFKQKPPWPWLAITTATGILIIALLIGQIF
Experiment: Plant membrane (tobacco microsome) hormone binding assay with [3H]trans-zeatin, StHK3a sensory module
Conditions: read-out: Apparent Kd StHK3a SM
propertyName: pKd
pKd here is simply -log10 of the concentration when that concentration is written in mol/L.

### Prompt Give the measured pKd of C/C(=C/CNc1ncnc2nc[nH]c12)CO [cis-Zeatin] .
### Response 6.96

====

Biological target: UniProt:A0A2U9K790
Sequence (A0A2U9K790 entry or part of it): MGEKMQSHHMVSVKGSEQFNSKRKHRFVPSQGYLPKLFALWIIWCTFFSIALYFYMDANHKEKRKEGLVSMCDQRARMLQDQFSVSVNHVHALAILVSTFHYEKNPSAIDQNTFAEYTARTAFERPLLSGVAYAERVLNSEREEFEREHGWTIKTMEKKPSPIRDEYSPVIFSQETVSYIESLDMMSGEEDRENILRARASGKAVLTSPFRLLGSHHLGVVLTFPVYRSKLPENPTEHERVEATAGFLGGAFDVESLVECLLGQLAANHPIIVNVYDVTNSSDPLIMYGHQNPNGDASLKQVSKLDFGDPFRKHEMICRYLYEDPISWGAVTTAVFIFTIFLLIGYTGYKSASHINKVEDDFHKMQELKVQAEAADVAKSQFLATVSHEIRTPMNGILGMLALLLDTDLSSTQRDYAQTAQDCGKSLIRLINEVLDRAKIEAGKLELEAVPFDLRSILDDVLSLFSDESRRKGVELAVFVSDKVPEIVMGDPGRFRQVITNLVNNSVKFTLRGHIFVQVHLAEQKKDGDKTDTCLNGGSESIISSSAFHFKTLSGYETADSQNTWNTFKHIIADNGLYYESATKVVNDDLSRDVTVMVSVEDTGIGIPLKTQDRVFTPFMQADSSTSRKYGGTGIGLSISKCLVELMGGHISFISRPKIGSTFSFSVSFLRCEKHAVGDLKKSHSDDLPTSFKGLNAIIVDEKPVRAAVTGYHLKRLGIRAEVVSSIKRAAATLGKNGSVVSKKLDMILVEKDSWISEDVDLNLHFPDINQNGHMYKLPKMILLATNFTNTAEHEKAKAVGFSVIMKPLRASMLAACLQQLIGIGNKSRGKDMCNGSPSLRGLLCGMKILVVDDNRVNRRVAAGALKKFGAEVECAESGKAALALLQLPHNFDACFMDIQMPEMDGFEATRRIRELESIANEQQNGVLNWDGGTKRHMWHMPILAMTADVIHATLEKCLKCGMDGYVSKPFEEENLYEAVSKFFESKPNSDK
Assay: Plant membrane (tobacco microsome) hormone binding assay with [3H]trans-zeatin, StHK4a
Details: read-out: Apparent Kd StHK4a
propertyName: pKd
pKd here is simply -log10 of the concentration when that concentration is written in mol/L.

### Prompt Give the measured pKd of C/C(=C/CNc1ncnc2nc[nH]c12)CO [cis-Zeatin] .
### Response 6.97
